target: PPARγ LBD protein (Homo sapiens); construct: 1 nM 6xHis-PPAR LBD protein; experiment: LanthaScreen TR-FRET competitive ligand displacement (PPARγ protein binding) assay; settings: TR-FRET signal at 0.8 µM
Measurement label: Raw Data - Background (RLU)
Give the value, in units of RLU, as a plain number.

[
  {
    "Mol smiles": "C=CCc1ccc(OCC(=O)Nc2ccc(C)cc2)c(OC)c1",
    "Measurement label": "Raw Data - Background (RLU)",
    "Output unit": "RLU",
    "Assay result": 1.754
  }
]

## Input # lookup: Raw Data - Background (RLU) of "C=CCc1ccc(OCC(=O)Nc2ccc(Cl)cc2)c(OC)c1"
## Output 1.687

## Input # lookup: Raw Data - Background (RLU) of "C=CCc1ccc(OCC(=O)Nc2ccc(OC)cc2)c(OC)c1"
## Output 1.767

## Input # lookup: Raw Data - Background (RLU) of "C=CCc1ccc(OCC(=O)Nc2cccc(C)c2)c(OC)c1"
## Output 1.68

###

biological target: PPARγ LBD protein (Homo sapiens, UniProt P37231); construct: 1 nM 6xHis-PPAR LBD protein; assay: LanthaScreen TR-FRET competitive ligand displacement (PPARγ protein binding) assay; details: TR-FRET signal at 20 µM
Measurement label: Raw Data - Background (RLU)
Give the value, in units of RLU, as a plain number.

# annotated cases, reported Raw Data - Background (RLU) shown
[
  {
    "Compound": "C=CCc1ccc(OCC(=O)Nc2ccc(Cl)cc2)c(OC)c1 [Compound 1C]",
    "Raw Data - Background (RLU)": 0.823
  },
  {
    "Compound": "C=CCc1ccc(OCC(=O)Nc2ccc(C)cc2)c(OC)c1 [Compound 1A]",
    "Raw Data - Background (RLU)": 0.8399
  },
  {
    "Compound": "C=CCc1ccc(OCC(=O)Nc2ccc(OC)cc2)c(OC)c1 [Compound 1B]",
    "Raw Data - Background (RLU)": 1.045
  }
]

Note: attention shifts to another entry.
## Input # lookup: Raw Data - Background (RLU) of C=CCc1ccc(OCC(=O)Nc2cccc(C)c2)c(OC)c1 [Compound 1D]
## Output 1.67

###

Reported inhibition at 25 µM is given for each of the following compounds.
molecular target: egg albumin (Gallus gallus, UniProt P01012); experiment: Albumin denaturation assay (in vitro anti-inflammatory activity); set-up: species or system hen; conditions: 25 μM; means ± SD, n = 3; read-out: percentage inhibition of albumin denaturation
Sequence (P01012 2-386): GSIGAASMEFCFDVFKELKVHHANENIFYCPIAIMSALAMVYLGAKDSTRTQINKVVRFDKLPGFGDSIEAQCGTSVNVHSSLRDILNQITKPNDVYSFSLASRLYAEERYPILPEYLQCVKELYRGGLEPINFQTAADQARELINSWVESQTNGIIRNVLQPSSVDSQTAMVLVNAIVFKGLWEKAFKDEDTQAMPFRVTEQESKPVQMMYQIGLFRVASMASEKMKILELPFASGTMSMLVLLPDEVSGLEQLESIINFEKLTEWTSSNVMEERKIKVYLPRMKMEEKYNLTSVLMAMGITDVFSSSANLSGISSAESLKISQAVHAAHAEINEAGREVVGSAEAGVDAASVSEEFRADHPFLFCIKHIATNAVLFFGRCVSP
Quote the value and follow it with the unit of measurement.

[
  {
    "Compound": "C=CCc1ccc(OCC(=O)Nc2ccc(C)cc2)c(OC)c1",
    "Measurement label": "inhibition at 25 µM",
    "Assay result": "8.72%"
  },
  {
    "Compound": "O=C(O)Cc1ccccc1Nc1c(Cl)cccc1Cl [Standard diclofenac, Diclofenac sodium, reference compound]",
    "Measurement label": "inhibition at 25 µM",
    "Assay result": "27%"
  },
  {
    "Compound": "C=CCc1ccc(OCC(=O)Nc2cccc(C)c2)c(OC)c1",
    "Measurement label": "inhibition at 25 µM",
    "Assay result": "11.1%"
  },
  {
    "Compound": "C=CCc1ccc(OCC(=O)Nc2ccc(Cl)cc2)c(OC)c1",
    "Measurement label": "inhibition at 25 µM",
    "Assay result": "15.7%"
  }
]

Note: attention shifts to another entry.
## Input # lookup: inhibition at 25 µM of "C=CCc1ccc(OCC(=O)Nc2ccc(OC)cc2)c(OC)c1"
## Output 6.82%

###

Molecular target: PPARγ LBD protein (Homo sapiens, UniProt P37231)
Construct: 1 nM 6xHis-PPAR LBD protein
Sequence (P37231 238-503 limits assumed): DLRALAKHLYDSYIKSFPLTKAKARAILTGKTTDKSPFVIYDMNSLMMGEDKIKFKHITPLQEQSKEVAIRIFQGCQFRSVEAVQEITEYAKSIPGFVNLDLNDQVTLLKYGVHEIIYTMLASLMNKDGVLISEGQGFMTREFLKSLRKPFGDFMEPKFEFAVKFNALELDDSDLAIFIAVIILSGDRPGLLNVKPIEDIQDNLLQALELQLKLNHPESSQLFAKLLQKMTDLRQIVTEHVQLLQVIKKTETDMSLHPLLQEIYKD
Assay: LanthaScreen TR-FRET competitive ligand displacement (PPARγ protein binding) assay
Conditions: TR-FRET signal at 20 µM
Reported Raw Data (RLU) is given for each of the following compounds.
Give the value, in units of RLU, as a plain number.

[
  {
    "Compound": "C=CCc1ccc(OCC(=O)Nc2ccc(OC)cc2)c(OC)c1 [Compound 1B]",
    "Output unit": "RLU",
    "Raw Data (RLU)": 1.280
  },
  {
    "Compound": "C=CCc1ccc(OCC(=O)Nc2ccc(C)cc2)c(OC)c1 [Compound 1A]",
    "Output unit": "RLU",
    "Raw Data (RLU)": 1.07
  },
  {
    "Compound": "C=CCc1ccc(OCC(=O)Nc2ccc(Cl)cc2)c(OC)c1 [Compound 1C]",
    "Output unit": "RLU",
    "Raw Data (RLU)": 1.058
  }
]

## Input # lookup: Raw Data (RLU) of C=CCc1ccc(OCC(=O)Nc2cccc(C)c2)c(OC)c1 [Compound 1D]
## Output 1.91

###

Target: PPARγ LBD protein (Homo sapiens)
Construct: 1 nM 6xHis-PPAR LBD protein
Assay: LanthaScreen TR-FRET competitive ligand displacement (PPARγ protein binding) assay
Conditions: TR-FRET signal at 0.032 µM
Procedure: Based on time-resolved fluorescence resonance energy transfer (TR-FRET), the nuclear receptor competitive binding assay was utilized to identify PPARγ ligands. […] We performed a time-resolved fluorescence resonance energy transfer (TR-FRET) assay using a black flat bottom 384-well plate and a buffer containing 20 mM potassium phosphate (pH 7.4), 0.5 mM EDTA, 50 mM KCl, and 0.01% Tween-20, 5 mM TCEP. […]
Measurement label: Raw Data - Background (RLU)
Give the value, in units of RLU, as a plain number.

# annotated cases, reported Raw Data - Background (RLU) shown
[
  {
    "Mol smiles": "C=CCc1ccc(OCC(=O)Nc2ccc(Cl)cc2)c(OC)c1",
    "Target desc": "PPARγ LBD protein (Homo sapiens)",
    "Assay result": 1.754
  },
  {
    "Mol smiles": "C=CCc1ccc(OCC(=O)Nc2ccc(OC)cc2)c(OC)c1",
    "Target desc": "PPARγ LBD protein (Homo sapiens)",
    "Assay result": 1.678
  }
]

## Input # lookup: Raw Data - Background (RLU) of "C=CCc1ccc(OCC(=O)Nc2ccc(C)cc2)c(OC)c1"
## Output 1.76

## Input # lookup: Raw Data - Background (RLU) of "C=CCc1ccc(OCC(=O)Nc2cccc(C)c2)c(OC)c1"
## Output 1.70

###

Reported Raw Data (RLU) is given for each of the following compounds.
Biological target: PPARγ LBD protein (Homo sapiens, UniProt P37231)
Construct: 1 nM 6xHis-PPAR LBD protein
Sequence (P37231 238-503 limits assumed): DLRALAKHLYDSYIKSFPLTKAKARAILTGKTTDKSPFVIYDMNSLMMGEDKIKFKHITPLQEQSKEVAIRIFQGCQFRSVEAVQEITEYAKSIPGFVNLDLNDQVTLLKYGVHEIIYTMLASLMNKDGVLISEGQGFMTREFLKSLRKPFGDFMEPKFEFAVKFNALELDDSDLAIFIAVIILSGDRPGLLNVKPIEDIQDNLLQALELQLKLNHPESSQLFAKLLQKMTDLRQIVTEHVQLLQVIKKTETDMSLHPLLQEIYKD
Test: LanthaScreen TR-FRET competitive ligand displacement (PPARγ protein binding) assay
Conditions: TR-FRET signal at 0.0000512 µM
Give the value, in units of RLU, as a plain number.

# annotated cases, reported Raw Data (RLU) shown
[
  {
    "Mol smiles": "C=CCc1ccc(OCC(=O)Nc2cccc(C)c2)c(OC)c1",
    "Output unit": "RLU",
    "Raw Data (RLU)": 1.92
  },
  {
    "Mol smiles": "C=CCc1ccc(OCC(=O)Nc2ccc(OC)cc2)c(OC)c1",
    "Output unit": "RLU",
    "Raw Data (RLU)": 2.024
  },
  {
    "Mol smiles": "C=CCc1ccc(OCC(=O)Nc2ccc(Cl)cc2)c(OC)c1",
    "Output unit": "RLU",
    "Raw Data (RLU)": 2.069
  }
]

## Input # lookup: Raw Data (RLU) of "C=CCc1ccc(OCC(=O)Nc2ccc(C)cc2)c(OC)c1"
## Output 2.07
